Kindly supply the reported EC50 values for the records listed here.
Target: CFTR in F508del/F508del primary CF hBE cells (Homo sapiens, UniProt P13569, DEL508-508)
Construct: Primary cystic fibrosis human bronchial epithelial (CF hBE) cells were expanded and cultured; endogenous in cells
Sequence (P13569 with tags, fused parts or gaps DEL508-508): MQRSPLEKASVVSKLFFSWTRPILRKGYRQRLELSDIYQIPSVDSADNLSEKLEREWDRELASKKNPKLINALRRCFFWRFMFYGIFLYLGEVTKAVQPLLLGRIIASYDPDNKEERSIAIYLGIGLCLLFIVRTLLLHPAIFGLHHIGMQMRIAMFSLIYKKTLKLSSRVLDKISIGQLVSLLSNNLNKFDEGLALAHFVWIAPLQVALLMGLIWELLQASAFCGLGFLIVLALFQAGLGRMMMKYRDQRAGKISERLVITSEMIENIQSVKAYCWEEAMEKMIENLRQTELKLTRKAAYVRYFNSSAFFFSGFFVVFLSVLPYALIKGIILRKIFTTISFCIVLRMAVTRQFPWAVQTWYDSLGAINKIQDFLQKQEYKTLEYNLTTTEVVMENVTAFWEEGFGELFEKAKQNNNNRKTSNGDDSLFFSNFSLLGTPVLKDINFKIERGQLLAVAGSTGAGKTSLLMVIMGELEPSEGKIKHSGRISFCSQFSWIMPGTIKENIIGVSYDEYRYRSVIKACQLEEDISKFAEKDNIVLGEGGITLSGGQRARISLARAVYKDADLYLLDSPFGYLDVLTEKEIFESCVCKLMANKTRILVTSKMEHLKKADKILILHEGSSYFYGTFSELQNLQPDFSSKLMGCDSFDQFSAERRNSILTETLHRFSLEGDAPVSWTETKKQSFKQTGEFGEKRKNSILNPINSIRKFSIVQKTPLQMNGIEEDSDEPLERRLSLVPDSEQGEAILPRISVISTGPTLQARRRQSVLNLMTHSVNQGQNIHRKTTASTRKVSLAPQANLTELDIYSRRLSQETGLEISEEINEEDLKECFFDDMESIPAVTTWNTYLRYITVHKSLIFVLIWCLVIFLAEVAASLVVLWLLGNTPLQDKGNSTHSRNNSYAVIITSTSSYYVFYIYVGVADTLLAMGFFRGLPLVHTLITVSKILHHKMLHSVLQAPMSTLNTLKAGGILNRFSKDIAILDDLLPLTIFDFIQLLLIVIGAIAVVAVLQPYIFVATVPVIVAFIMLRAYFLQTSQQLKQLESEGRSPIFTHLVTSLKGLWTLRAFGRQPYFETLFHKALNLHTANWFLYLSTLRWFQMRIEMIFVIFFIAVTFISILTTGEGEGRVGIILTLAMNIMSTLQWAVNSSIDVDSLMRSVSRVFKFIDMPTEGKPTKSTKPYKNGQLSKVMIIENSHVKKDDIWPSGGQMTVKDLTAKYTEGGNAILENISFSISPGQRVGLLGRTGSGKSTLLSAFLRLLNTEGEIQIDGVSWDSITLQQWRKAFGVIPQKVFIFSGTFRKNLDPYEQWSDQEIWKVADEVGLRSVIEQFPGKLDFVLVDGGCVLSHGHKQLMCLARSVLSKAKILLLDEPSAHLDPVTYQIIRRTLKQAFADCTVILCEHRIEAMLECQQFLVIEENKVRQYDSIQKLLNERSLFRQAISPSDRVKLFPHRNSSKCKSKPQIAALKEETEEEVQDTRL
Test: Ussing chamber electrophysiology assay of CFTR potentiation in F508del/F508del CF bronchial epithelial cells (27° C.)
Description: • SHELXTL, Version 5.1, Bruker AXS, 1997. • PLATON, A. L. Spek, J. Appl. Cryst. 2003, 36, 7-13. • MERCURY, C. F. Macrae, P. R. Edington, P. McCabe, E. Pidcock, G. P. Shields, R. Taylor, M. Towler and J. van de Streek, J. Appl. Cryst. 39, 453-457, 2006. • OLEX2, Dolomanov, O. V.; Bourhis, L. J.; Gildea, R. J.; Howard, J. A. K.; Puschmann, H., (2009). J. Appl. Cryst., 42, 339-341. • R. W. W. Hooft et al. J. Appl. Cryst. (2008). 41. 96-103. • H. D. Flack, Acta Cryst. 1983, A39, 867-881. […]
Answers are plain numbers, in µM.

compound: CCC(c1cn(-c2ccccc2F)nn1)n1cc(-c2ccc(Cl)cc2)c2c(N)ncnc21 (single isomer, unassigned; enantiomer 1) [Example 131]
experimental target: CFTR in F508del/F508del primary CF hBE cells (Homo sapiens, UniProt P13569, DEL508-508)
EC50 / µM: 0.282

Hi there! I need EC50 for each item below, if you can.
1. CCC(c1cn(-c2ccccc2F)nn1)n1cc(-c2cnc(C(F)(F)F)nc2)c2c(N)ncnc21 (single isomer, unassigned; enantiomer 1) [Example 137]
2. CCC(c1cn(-c2ccccc2F)nn1)n1cc(-c2cnc(N(C)C)nc2)c2c(N)ncnc21 (single isomer, unassigned; enantiomer 1) [Example 145]
3. CCC(c1cn(-c2ccccc2)nn1)n1cc(-c2cncnc2OC)c2c(N)ncnc21 (single isomer, unassigned; enantiomer 1) [Example 127]
4. CC(c1cnn(-c2ccc(F)cc2F)c1)n1c(C#N)c(-c2cnc(C(F)(F)F)nc2)c2c(N)ncnc21 (single isomer, unassigned) [Example 8]

Output:
1: 0.0103; 2: 0.0297; 3: 0.448; 4: 0.0155

Hi there! I need EC50 for each item below, if you can.
1. CC(c1cn(-c2ccccc2F)nn1)n1cc(C2CC2)c2c(N)ncnc21 (centres unmarked) [Example 238]
2. CC(c1cn(-c2ccccc2F)nn1)n1cc(C2CCC2)c2c(N)ncnc21 (centres unmarked) [Example 247]
3. CC(c1cn(-c2ccccc2F)nn1)n1c(C#N)c(-c2cnc(C(F)(F)F)nc2)c2c(N)ncnc21 (single isomer, unassigned) [Example 9]

Output:
[0.133, 0.0124, 0.0204]

Hi there! I need EC50 for each item below, if you can.
1. CC(c1cn(-c2ccccc2F)nn1)n1c(C#N)c(-c2cnc(C(F)(F)F)nc2)c2c(N)ncnc21 (single isomer, unassigned) [Example 10]
2. CCC(c1cn(-c2ccc(F)cc2F)nn1)n1c(C#N)c(-c2cnc(C(F)(F)F)nc2)c2c(N)ncnc21 (single isomer, unassigned) [Example 16]
3. CC(c1cn(-c2ccccc2F)nn1)n1cc(C2CCC2)c2c(N)ncnc21 (single isomer, unassigned; enantiomer 1) [Example 294]
4. CCC(c1cn(-c2ccccc2F)nn1)n1cc(C2CC2)c2c(N)ncnc21 (single isomer, unassigned; enantiomer 1) [Example 173]
5. CSc1ccc(-c2cn(C(C)c3cn(-c4ccccc4F)nn3)c3ncnc(N)c23)cc1 (centres unmarked) [Example 88]
6. CCC(c1cn(-c2ccccc2F)nn1)n1cc(C2CC2)c2c(N)ncnc21 (single isomer, unassigned; enantiomer 2) [Example 316]
7. CC(c1cnc(-c2ccccc2F)[nH]1)n1cc(-c2cnc(N(C)C)nc2)c2c(N)ncnc21 (centres unmarked) [Example 67]
8. CCC(c1cn(-c2cccc(F)c2F)nn1)n1c(C#N)c(-c2cnc(C(F)(F)F)nc2)c2c(N)ncnc21 (single isomer, unassigned) [Example 18]

Output:
1: 0.0703; 2: 0.009; 3: 0.189; 4: 0.0267; 5: 0.0382; 6: 0.541; 7: 0.142; 8: 0.0125
